- assay-text: CCTE_Shafer_MEA_acute_spike_number: CCTE's Neural Acute Assay for Total Number of Spikes, Shafer Lab (AID 2284008)
The source made the active and inactive calls. Rule for the calls: active = hit-call score of the fitted dose curve at least 0.9, where 1 is the maximum; inactive = score below 0.9.
Possible outcomes: active, inactive

| molecule | discrete-label |
| --- | --- |
| CN(C)CCC(c1ccc(Cl)cc1)c1ccccn1 (stereo not given) | inactive |
| CC[N+](CC)(CC(=O)Nc1c(C)cccc1C)Cc1ccccc1 (tested in a mixture with another compound) | active |
| CNCCC(Oc1ccc(C(F)(F)F)cc1)c1ccccc1 (stereo not given) | active |
| O=[N+]([O-])c1cc(S(=O)(=O)Nc2ccccc2)ccc1Nc1ccccc1 | active |
| NC(N)=Nc1nc(CSCCC(N)=NS(N)(=O)=O)cs1 | inactive |

---

- system: Cellular tumor antigen p53 (Homo sapiens) (UniProt P04637)
- Sequence (P04637 whole entry, looked up): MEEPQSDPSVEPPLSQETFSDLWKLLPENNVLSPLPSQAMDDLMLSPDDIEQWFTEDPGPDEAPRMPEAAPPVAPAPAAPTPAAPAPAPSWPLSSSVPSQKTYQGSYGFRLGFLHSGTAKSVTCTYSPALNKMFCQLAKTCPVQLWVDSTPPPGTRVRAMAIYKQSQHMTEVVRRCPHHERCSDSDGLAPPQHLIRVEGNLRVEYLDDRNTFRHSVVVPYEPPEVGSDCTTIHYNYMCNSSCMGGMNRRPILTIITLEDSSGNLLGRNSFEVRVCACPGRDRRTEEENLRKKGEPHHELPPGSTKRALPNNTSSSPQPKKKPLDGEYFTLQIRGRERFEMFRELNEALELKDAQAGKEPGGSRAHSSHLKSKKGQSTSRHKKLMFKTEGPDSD
- assay-text: TOX21_p53_BLA_p5_ratio: Tox21 HCT-116 p53 Agonism Beta-lactamase Assay, Ratio, Phase 5 (AID 2283599)
- Protocol: TOX21_p53_BLA_p5 is a cell-based, single-readout assay that uses HCT116, a human intestinal cell line, […] in a 1536-well plate.TOX21_p53_BLA_p5_ratio is an assay readout measuring reporter gene via receptor activity and designed using inducible reporter (beta lactamase induction) detected with GAL4 b-lactamase reporter gene. […] This assay endpoint, TOX21_p53_BLA_p5_ratio, was analyzed in the positive analysis fitting direction relative to DMSO as the negative control and baseline of activity. […]
Records with an inconclusive call do not appear. Active and inactive are the calls of the source. The calls were made as follows: active = hit-call score of the fitted dose curve at least 0.9, where 1 is the maximum; inconclusive = response in the unintended direction; inactive = score below 0.9.

| molecule | AC50 |
| --- | --- |
| CC(=O)Nc1ccn(C2COC(COC(=O)c3ccccc3)O2)c(=O)n1 (configuration not stated) | inactive |
| CC(C)CN(C[C@@H](O)[C@H](Cc1ccccc1)NC(=O)O[C@H]1CO[C@H]2OCC[C@H]21)S(=O)(=O)c1ccc(N)cc1 | inactive |
| C1CCN2C[C@@H]3C[C@@H](CN4CCCC[C@@H]34)[C@H]2C1 | inactive |
| CC(C)(O)c1ccccc1CC[C@@H](SCC1(CC(=O)O)CC1)c1cccc(/C=C/c2ccc3ccc(Cl)cc3n2)c1 | 17.6 µM (active) |
| O=[N+]([O-])c1ccccc1CCO | inactive |
| CCN(CC)CCOc1ccc2nc(N(C)C)sc2c1 | inactive |
| CC(NCCC(c1ccccc1)c1ccccc1)c1ccccc1 (configuration not stated) | 35.8 µM (active) |
| CCC(c1ccccc1)c1noc(CCN(CC)CC)n1 (configuration not stated) | inactive |
| CO[C@H]1C[C@H](O[C@H]2[C@H](C)[C@@H](O[C@@H]3O[C@H](C)C[C@H](N(C)C)[C@H]3OC(C)=O)[C@@H](C)C[C@]3(CO3)C(=O)[C@H](C)[C@@H](OC(C)=O)[C@@H](C)[C@@H](C)OC(=O)[C@@H]2C)O[C@@H](C)[C@@H]1OC(C)=O | inactive |
| CCCCCCN | inactive |
| O=S(=O)(O)c1ccc(O)cc1 | inactive |
| c1ccc2c(CC3=NCCN3)cccc2c1 | inactive |
| Nc1ccc(Oc2ccc(Cl)cc2)cc1 | inactive |
| CNC(=C[N+](=O)[O-])NCCSCc1csc(CN(C)C)n1 | inactive |
| CN(C)CCOC(c1ccc(Cl)cc1)c1ccccn1 (configuration not stated) | inactive |
| O=C1Nc2ccc(Cl)cc2[C@@](C#CC2CC2)(C(F)(F)F)O1 | 36.7 µM (active) |
| CC(CN(C)C)C(C)(O)Cc1ccc(Cl)cc1 (configuration not stated) | inactive |
| CC(=O)[C@H]1CC[C@H]2[C@@H]3C=CC4=CC(=O)CC[C@@]4(C)[C@@H]3CC[C@]12C | inactive |
| CCCN(CCC)C(=O)C(CCC(=O)OCCCN1CCN(CCOC(=O)Cc2c(C)n(C(=O)c3ccc(Cl)cc3)c3ccc(OC)cc23)CC1)NC(=O)c1ccccc1 (configuration not stated) | inactive |
| CCCC(CCC)C(=O)OC1C[C@H]2CC[C@@H](C1)[N+]2(C)C (some centres not stated) | inactive |
| Nc1ccn([C@@H]2O[C@H](CO)[C@@H](O)C2(F)F)c(=O)n1 | 0.26 µM (active) |
| C[N+]1(CC2COC(c3ccccc3)(C3CCCCC3)O2)CCCCC1 (configuration not stated) | inactive |
| CCCCC(CC)COC(=O)C=Cc1ccc(OC)cc1 (configuration not stated) | inactive |
| [O-][n+]1cccc(CO)c1 | inactive |
| C=C1/C(=C\C=C2/CCC[C@]3(C)[C@@H]([C@H](C)OCCC(C)(C)O)CC[C@@H]23)C[C@@H](O)C[C@@H]1O | 13.5 µM (active) |
| CC[C@H](C)[C@H](N)C(=O)O | inactive |
| O=C(O)C(Cc1cc(I)c(O)c(I)c1)c1ccccc1 (configuration not stated) | inactive |
| CC1CN(c2ccccc2)NC1=O (configuration not stated) | inactive |
| N#C[C@@H]1C[C@@H]2C[C@@H]2N1C(=O)[C@@H](N)C12CC3CC(CC(O)(C3)C1)C2 | inactive |
| CCCC[P+](C)(CCCC)CCCC | inactive |
| CCCCCCCCCCCCCCCCCC(=O)OC[C@@H](O)[C@H]1OC[C@H](O)[C@H]1O | inactive |
| O=C(NOCC1CC1)c1ccc(F)c(F)c1Nc1ccc(I)cc1Cl | 20.5 µM (active) |
| O=C(O)c1ccccc1Nc1cc(Cl)ccc1C(=O)O | inactive |
| O=P(O)(O)C(O)(Cc1cnc2ccccn12)P(=O)(O)O | inactive |
| C=CC[C@@H]1/C=C(\C)C[C@H](C)C[C@H](OC)[C@H]2O[C@@](O)(C(=O)C(=O)N3CCCC[C@H]3C(=O)O[C@H](/C(C)=C/[C@@H]3CC[C@@H](O)[C@H](OC)C3)[C@H](C)[C@@H](O)CC1=O)[C@H](C)C[C@@H]2OC | 36.8 µM (active) |
| O=C(O)c1ccccc1S | inactive |
| CC(C)N=c1cc2n(-c3ccc(Cl)cc3)c3ccccc3nc-2cc1Nc1ccc(Cl)cc1 | inactive |
| CCC(=O)OCC(=O)[C@@]1(OC(=O)CC)[C@H](C)C[C@H]2[C@H]3[C@H]([C@@H](O)C[C@@]21C)[C@@]1(C)C=CC(=O)C=C1C[C@H]3Cl | inactive |
| NC(CSCC(=O)O)C(=O)O (configuration not stated) | inactive |
| O=C(O)CN(CCN(CC(=O)O)CC(=O)O)CC(=O)O | inactive |
| CCCCCCCCC(CCCCCC)C(=O)O (configuration not stated) | inactive |
| O=C(O)Cc1nn(Cc2ccc(Br)cc2F)c(=O)c2ccccc12 | inactive |

---

- system: Retinoic acid receptor alpha (Homo sapiens)
- assay-text: ATG_DR5_RAR_CIS: Attagene CIS-FACTORIAL HepG2 Assay for human Retinoic Acid Receptor Alpha (RARE), DR5 submotif (AID 2282934)
- assay-context: HepG2 Attagene cis-factorial RARE DR5 reporter, mRNA; actives raise or lower the signal
- Experimental: ATG_CIS is a cell-based, multiplexed-readout assay that uses HepG2, a human liver cell line, with measurements taken at 24 hours after chemical dosing in a 24-well plate.ATG_DR5_RAR_CIS is one of 52 assay component(s) measured or calculated from the ATG_CIS assay. […] This assay endpoint, ATG_DR5_CIS, was analyzed with bidirectional fitting relative to DMSO as the negative control and baseline of activity. […]
Activity calls are given as the source filed them. The calls were made as follows: active = hit-call score of the fitted dose curve at least 0.9, where 1 is the maximum; inactive = score below 0.9.
Possible outcomes: true (1) = active, false (0) = inactive

| compound | discrete-label |
| --- | --- |
| CN(C)Cc1cc(C(C)(C)C)c(O)c(C(C)(C)C)c1 | false (0) |
| C=C(C)C(=O)OCCCCCC | false (0) |
| Clc1ccccn1 | false (0) |
| O=C(CC(C(=O)OC1CCCCC1)S(=O)(=O)O)OC1CCCCC1 (stereo not given) | false (0) |
| Cc1cc(O)cc(C)c1Cl | true (1) |
| COC(=O)/C=C\C(=O)OC | false (0) |
| CCCCC(CC)COC(=O)CS (stereo not given) | false (0) |
| O=[N+]([O-])c1ccccc1C(F)(F)F | false (0) |
| NC(N)=Nc1nc(CSCCC(N)=NS(N)(=O)=O)cs1 | false (0) |
| CNC[C@H](O)[C@@H](O)[C@H](O)[C@H](O)CO | false (0) |
| CCCC(=O)OC/C=C(\C)CCC=C(C)C | false (0) |
| OCCOCCOCCOCCOCCO | false (0) |
| Cc1ccnc(N)c1 | false (0) |
| O=C(c1ccccc1)c1ccccc1O | false (0) |
| CCC(C)=NO | false (0) |

---

- system: Cellular tumor antigen p53 (Homo sapiens)
- assay-text: TOX21_p53_BLA_p5_ratio: Tox21 HCT-116 p53 Agonism Beta-lactamase Assay, Ratio, Phase 5 (AID 2283599)
Results filed as inconclusive are left out. The source made the active and inactive calls. The calls were made as follows: active = hit-call score of the fitted dose curve at least 0.9, where 1 is the maximum; inconclusive = response in the unintended direction; inactive = score below 0.9.

| molecule | AC50 |
| --- | --- |
| OCCN(CCO)c1cccc(Cl)c1 | inactive |
| CCCc1nc(C(C)(C)O)c(C(=O)OCc2oc(=O)oc2C)n1Cc1ccc(-c2ccccc2-c2nn[nH]n2)cc1 | inactive |
| CCOC(=O)NNc1ccc(N(CC)CC(C)O)nn1 (configuration not stated) | inactive |
| Cc1cccc2nccnc12 | inactive |
| N[C@H](CC(=O)O)C(=O)O | inactive |
| O=C(O)COC(=O)Cc1ccccc1Nc1c(Cl)cccc1Cl | inactive |
| NC(=O)C1c2ccccc2CCc2ccccc21 | inactive |
| CCc1cccc(CC)c1NC(=O)CN(CC(=O)O)CC(=O)O | inactive |
| NC(=S)Nc1cccc2ccccc12 | inactive |
| CN(C)CC/C=C1/c2ccccc2COc2ccc(CC(=O)O)cc21 | inactive |
| O[C@@H](CNC[C@H](O)[C@H]1CCc2cc(F)ccc2O1)[C@@H]1CCc2cc(F)ccc2O1 | 37.1 µM (active) |
| O=[N+]([O-])c1ccc2c(c1)Cc1ccccc1-2 | inactive |
